Where these numbers come from: ChEMBL document CHEMBL2218924

Target: Macrophage-stimulating protein receptor (Homo sapiens)
Conditions: at 1 µM
Test readout: residual activity (%)

{"columns": ["Molecule", "Subject of test", "Unit symbol", "Measured"],
 "data": [
  ["O=C(NC(NC(=S)Nc1ccc(F)c([N+](=O)[O-])c1)C(Cl)(Cl)Cl)C(c1ccccc1)c1ccccc1 (stereo not given)", "Macrophage-stimulating protein receptor (Homo sapiens)", "%", 88],
  ["Nc1ncnc2c1c(-c1ccc(Oc3ccccc3)cc1)cn2C1CCCC1", "Macrophage-stimulating protein receptor (Homo sapiens)", "%", 92],
  ["O=C(c1cc2cc(O)ccc2[nH]1)c1cc2cc(O)ccc2[nH]1", "Macrophage-stimulating protein receptor (Homo sapiens)", "%", 80],
  ["O=C(c1ccccc1)c1ccc(N2CCOCC2)cc1O", "Macrophage-stimulating protein receptor (Homo sapiens)", "%", 90],
  ["CSc1nc(-c2ccc(F)cc2)c(-c2ccnc(NC(C)c3ccccc3)c2)[nH]1 (stereo not given)", "Macrophage-stimulating protein receptor (Homo sapiens)", "%", 98]
]}

* * *

Biological target: Serine/threonine-protein kinase TBK1 (Homo sapiens)
Settings: at 1 µM
Test readout: residual activity (%)

{"columns": ["Chemical string", "Measured"],
 "data": [
  ["CC(C)(C)n1nc(Cc2cccc3ccccc23)c2c(N)ncnc21", 78],
  ["N#C/C(=C\\c1ccc(O)c(O)c1)C(=O)NCc1ccccc1", 82],
  ["COc1cc2nccc(Oc3ccc(NC(=S)NC(=O)c4ccccc4C)cc3)c2cc1OC", 57],
  ["O=C1NC(=O)C(c2c[nH]c3ccccc23)=C1c1c[nH]c2ccccc12", 70],
  ["COc1ccc(COc2ccc(Cc3cnc(N)nc3N)cc2OC)cc1", 61],
  ["CC(C)N(CCC(=O)c1ccc2ccccc2c1)Cc1ccccc1", 52],
  ["O=C(CCCc1ccc(-c2ccccc2F)cc1)Nc1ccc(O)cc1", 90],
  ["Nc1ncnc2c1c(-c1ccc(Oc3ccccc3)cc1)cn2C1CCCC1", 61],
  ["O=C(c1ccccc1)c1ccc(N2CCOCC2)cc1O", 91],
  ["CCCCc1c(-c2ccc(OC)cc2)[nH]c2nccnc12", 61],
  ["CCOc1nc(NC(=O)Cc2cc(OC)ccc2OC)cc(N)c1C#N", 79],
  ["O=c1cc(N2CCOCC2)oc2c1ccc1ccccc12", 77],
  ["COc1ccc(-c2cnc3c(-c4ccsc4)cnn3c2)cc1", 97],
  ["O=C1Cc2c([nH]c3ccc(Br)cc23)-c2ccccc2N1", 53],
  ["c1ccc(-c2cnc(Nc3ccc(OCCN4CCCC4)cc3)s2)cc1", 70],
  ["O=C1C(Cl)=C(N2C(=O)CCC2=O)C(=O)c2ccccc21", 68],
  ["NC(=O)c1cccc(-c2cc(Nc3ccc(OC(F)(F)F)cc3)ncn2)c1", 98],
  ["CCCC(=O)Oc1ccc2[nH]c(C(=O)c3cc4ccccc4[nH]3)cc2c1", 63],
  ["CC(C)[C@H](CO)Nc1nc(Nc2cc(N)cc(Cl)c2)c2ncn(C(C)C)c2n1", 97],
  ["NC(=O)Nc1sc(-c2ccc(F)cc2)cc1C(N)=O", 35],
  ["Nc1n[nH]c2nc3ccccc3nc12", 78],
  ["O=C(Nc1nc2ccccc2n1CCN1CCOCC1)c1cccc([N+](=O)[O-])c1", 73],
  ["CCOC(=O)c1c(C)[nH]c(/C=C2\\C(=O)Nc3ccccc32)c1C", 92]
]}

* * *

Below, each entry is listed alongside its reported residual activity.
Biological target: Mast/stem cell growth factor receptor Kit (Homo sapiens) (UniProt P10721)
Sequence (P10721 whole entry): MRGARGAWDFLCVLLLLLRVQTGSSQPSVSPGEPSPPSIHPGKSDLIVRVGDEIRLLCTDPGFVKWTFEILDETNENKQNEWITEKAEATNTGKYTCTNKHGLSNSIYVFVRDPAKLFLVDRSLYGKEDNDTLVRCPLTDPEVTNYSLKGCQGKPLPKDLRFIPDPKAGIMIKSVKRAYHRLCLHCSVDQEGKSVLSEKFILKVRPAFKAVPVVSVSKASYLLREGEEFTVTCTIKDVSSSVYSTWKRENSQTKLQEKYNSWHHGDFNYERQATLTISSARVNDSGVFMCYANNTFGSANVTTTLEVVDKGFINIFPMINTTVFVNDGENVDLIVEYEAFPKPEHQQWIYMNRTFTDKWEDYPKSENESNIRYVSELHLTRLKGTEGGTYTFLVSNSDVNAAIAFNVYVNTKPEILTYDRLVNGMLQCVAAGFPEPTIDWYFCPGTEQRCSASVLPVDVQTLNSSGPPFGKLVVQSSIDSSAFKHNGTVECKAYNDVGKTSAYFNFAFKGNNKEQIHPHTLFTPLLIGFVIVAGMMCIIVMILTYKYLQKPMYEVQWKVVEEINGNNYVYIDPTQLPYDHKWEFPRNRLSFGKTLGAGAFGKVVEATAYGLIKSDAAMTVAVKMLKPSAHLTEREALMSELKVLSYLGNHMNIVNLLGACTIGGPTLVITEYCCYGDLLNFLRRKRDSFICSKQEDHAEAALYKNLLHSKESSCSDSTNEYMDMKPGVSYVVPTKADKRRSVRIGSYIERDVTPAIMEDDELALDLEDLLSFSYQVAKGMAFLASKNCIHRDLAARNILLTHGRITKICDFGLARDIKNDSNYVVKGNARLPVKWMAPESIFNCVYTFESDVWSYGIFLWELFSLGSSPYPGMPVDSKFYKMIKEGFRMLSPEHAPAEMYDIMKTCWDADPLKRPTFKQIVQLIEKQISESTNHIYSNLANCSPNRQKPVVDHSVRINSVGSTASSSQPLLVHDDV
Settings: at 1 µM
Test readout: residual activity (%)

{"columns": ["Chemical string", "Unit symbol", "Measured"],
 "data": [
  ["NCCNc1ncc(C(N)=O)c(Nc2cccc(C(F)(F)F)c2)n1", "%", 112],
  ["Nc1ncnc2[nH]nc(Nc3ccc(F)cc3)c12", "%", 106],
  ["O=C(Nc1ccc(Cl)cc1)c1ccccc1NCc1ccncc1", "%", 17],
  ["O=C1C(Cl)=C(N2C(=O)CCC2=O)C(=O)c2ccccc21", "%", 101],
  ["COc1cc2c(cc1OC)-c1n[nH]c(Nc3cccc(F)c3)c1C2", "%", 0],
  ["Oc1cccc(-c2nc(N3CCOCC3)c3oc4ncccc4c3n2)c1", "%", 118],
  ["O=C1NC(=O)c2c1c1c3ccccc3[nH]c1n1cncc21", "%", 11],
  ["Cn1c2ccccc2c2c3c(c4c5ccccc5n(CCC#N)c4c21)CNC3=O", "%", 113],
  ["Nc1nc(Nc2ccc(S(N)(=O)=O)cc2)nn1C(=O)c1c(F)cccc1F", "%", 100],
  ["COc1ccc(-c2cnc3c(-c4ccsc4)cnn3c2)cc1", "%", 100],
  ["O=C1Cc2c([nH]c3ccc([N+](=O)[O-])cc23)-c2ccccc2N1", "%", 110]
]}

* * *

Each record here notes measured residual activity.
Molecular target: Aurora kinase A (Homo sapiens)
Conditions: at 10 µM

{"columns": ["Chemical string", "residual activity, %"],
 "data": [
  ["COc1ccc2c(c1)c(C1=C(c3c[nH]c4ccccc34)C(=O)NC1=O)cn2CCCN(C)C", 97],
  ["O=C(CCCc1ccc(-c2ccccc2F)cc1)Nc1ccc(O)cc1", 102],
  ["COc1ccc(CNC(=O)Nc2ncc([N+](=O)[O-])s2)cc1", 113],
  ["Cn1c2ccccc2c2c3c(c4c5ccccc5n(CCC#N)c4c21)CNC3=O", 19],
  ["CCCCc1c(-c2ccc(O)cc2)[nH]c2nccnc12", 20],
  ["CC(C)(C)c1nc2c3ccc(F)cc3c3c(=O)[nH]ccc3c2[nH]1", 25],
  ["CC(C)(C)n1nc(Cc2cccc3ccccc23)c2c(N)ncnc21", 104],
  ["CC(C)[C@H](CO)Nc1nc(Nc2cc(N)cc(Cl)c2)c2ncn(C(C)C)c2n1", 47],
  ["COc1ccc(Cl)cc1NC(=O)Nc1cc(C)nc2ccccc12", 136],
  ["O=C1NC(=O)C(c2c[nH]c3ccccc23)=C1c1c[nH]c2ccccc12", 45],
  ["NC(=O)Nc1sc(-c2ccc(F)cc2)cc1C(N)=O", 3]
]}

* * *

Target: Mitogen-activated protein kinase kinase kinase 7 (Homo sapiens) (UniProt O43318)
Sequence (O43318 whole entry): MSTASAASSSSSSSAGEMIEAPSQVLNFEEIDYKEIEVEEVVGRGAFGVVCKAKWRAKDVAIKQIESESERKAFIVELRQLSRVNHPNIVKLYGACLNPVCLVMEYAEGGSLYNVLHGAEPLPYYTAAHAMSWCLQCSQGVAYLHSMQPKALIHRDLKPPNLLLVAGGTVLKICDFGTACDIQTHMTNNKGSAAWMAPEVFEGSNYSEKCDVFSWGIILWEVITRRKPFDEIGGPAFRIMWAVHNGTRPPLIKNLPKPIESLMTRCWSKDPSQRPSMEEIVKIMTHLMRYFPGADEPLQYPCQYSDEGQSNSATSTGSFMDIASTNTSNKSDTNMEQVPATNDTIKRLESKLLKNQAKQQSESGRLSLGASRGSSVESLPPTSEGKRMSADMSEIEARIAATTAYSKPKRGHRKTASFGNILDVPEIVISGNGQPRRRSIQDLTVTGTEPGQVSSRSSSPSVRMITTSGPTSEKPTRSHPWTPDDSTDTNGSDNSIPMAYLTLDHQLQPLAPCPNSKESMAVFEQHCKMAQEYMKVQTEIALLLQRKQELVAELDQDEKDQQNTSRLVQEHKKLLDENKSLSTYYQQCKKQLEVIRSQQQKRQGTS
Conditions: at 10 µM
Test readout: residual activity (%)

{"columns": ["Compound", "Subject of test", "Test readout", "Measured"],
 "data": [
  ["CSc1nc(-c2ccc(F)cc2)c(-c2ccnc(NC(C)c3ccccc3)c2)[nH]1 (stereo unspecified)", "Mitogen-activated protein kinase kinase kinase 7 (Homo sapiens) (UniProt O43318)", "residual activity", 93],
  ["COc1ccc2c(c1)c(C1=C(c3c[nH]c4ccccc34)C(=O)NC1=O)cn2CCCN(C)C", "Mitogen-activated protein kinase kinase kinase 7 (Homo sapiens) (UniProt O43318)", "residual activity", 53],
  ["O=C(c1cc2cc(O)ccc2[nH]1)c1cc2cc(O)ccc2[nH]1", "Mitogen-activated protein kinase kinase kinase 7 (Homo sapiens) (UniProt O43318)", "residual activity", 23],
  ["O=C1C(Cl)=C(N2C(=O)CCC2=O)C(=O)c2ccccc21", "Mitogen-activated protein kinase kinase kinase 7 (Homo sapiens) (UniProt O43318)", "residual activity", 83],
  ["CCN(CC)CCNC(=O)c1c(C)[nH]c(/C=C2\\C(=O)Nc3ccc(Cl)cc32)c1C", "Mitogen-activated protein kinase kinase kinase 7 (Homo sapiens) (UniProt O43318)", "residual activity", -3],
  ["O=C(O)/C=C/c1cc(Br)c(Br)c(Br)c1Br", "Mitogen-activated protein kinase kinase kinase 7 (Homo sapiens) (UniProt O43318)", "residual activity", 95],
  ["CC(C)N(CCC(=O)c1ccc2ccccc2c1)Cc1ccccc1", "Mitogen-activated protein kinase kinase kinase 7 (Homo sapiens) (UniProt O43318)", "residual activity", 86],
  ["Fc1ccc(-c2nc3n(c2-c2ccncc2)CCS3)cc1", "Mitogen-activated protein kinase kinase kinase 7 (Homo sapiens) (UniProt O43318)", "residual activity", 88],
  ["O=C(Nc1nc2ccccc2n1CCN1CCOCC1)c1cccc([N+](=O)[O-])c1", "Mitogen-activated protein kinase kinase kinase 7 (Homo sapiens) (UniProt O43318)", "residual activity", 74],
  ["Cn1sc(=O)n(Cc2ccccc2)c1=O", "Mitogen-activated protein kinase kinase kinase 7 (Homo sapiens) (UniProt O43318)", "residual activity", 79],
  ["COc1ccc(-c2cnc3c(-c4ccsc4)cnn3c2)cc1", "Mitogen-activated protein kinase kinase kinase 7 (Homo sapiens) (UniProt O43318)", "residual activity", 97]
]}

* * *

# residual activity annotations
Biological target: Homeodomain-interacting protein kinase 2 (Homo sapiens)
Conditions: at 10 µM

{"columns": ["Compound", "residual activity, %"],
 "data": [
  ["O=C1NC(=O)C(c2c[nH]c3ccccc23)=C1c1c[nH]c2ccccc12", 15],
  ["CSc1nc(-c2ccc(F)cc2)c(-c2ccnc(NC(C)c3ccccc3)c2)[nH]1 (stereo unspecified)", 86],
  ["CC(C)(C)n1nc(Cc2cccc3ccccc23)c2c(N)ncnc21", 110],
  ["COc1ccc(Cl)cc1NC(=O)Nc1cc(C)nc2ccccc12", 87],
  ["O=c1cc(N2CCNCC2)oc2c(-c3ccccc3)cccc12", 90],
  ["CCN(CC)CCNC(=O)c1c(C)[nH]c(/C=C2\\C(=O)Nc3ccc(Cl)cc32)c1C", 1]
]}
